Biological target: pooled human IgG
assayReadout: Enzyme Activity Endpoint Assay: Fab′2 (ng/µL)

protein | assayReadout | assayResult
PRT-530 (protein) MANQEIRYSEETPKTITSVWTKGVTPPTDFIQNEDVLHAPYIANQGWYDITKTFNGKDDLLCGAATAGNMLHWWFDQNKEEIENYLKKHPEKQKINFNGEQMFDVKEAIDTKDSQTDSALFEYFKDKAFPYLSTKHLGVMPDLVLDMFINGYYLSVGKHGPTPVKRGTKDPRGGIFDAVFTRGDQSKLLTARHDFKEKTLNEISDLIKQELTEGKALALSHTYANVRINHVINLWGADFNSEGNLEAIYVTDSDSNASIGMKKYYVGVNAAGKVAISAKEIEGDNIGAQVLGLFTLSTGQDIWEQTNLEHHHHHH | Enzyme Activity Endpoint Assay: Fab′2 | 87

Numbers sourced from patent US20250027068.
